Hi there, I'd appreciate the recorded Water uptake at 90% RH for every entry that follows.
Assay: Hygroscopicity by Dynamic Vapour Sorption
Format: physicochemical
Settings: 90% RH
Answers are plain numbers, in %.

Molecule: CCc1cccc(CC)c1NC(=O)c1nn(C)c2c1CCc1cnc(Nc3ccc(N4CCC(N(C)C)CC4)cc3OC)nc1-2 [Free Base]
Observable: Water uptake at 90% RH
Result number: 2.8

# ---- query molecule ----
Measured Water uptake at 90% RH of CCc1cccc(CC)c1NC(=O)c1nn(C)c2c1CCc1cnc(Nc3ccc(N4CCC(N(C)C)CC4)cc3OC)nc1-2.O=P(O)(O)O [Phosphate salt] : 2.5

====

I'd appreciate it if you could supply Water uptake at 60% RH values for the items below.
Test: Hygroscopicity by Dynamic Vapour Sorption
Assay type: physicochemical
Conditions: 60% RH
Give bare numbers, in %.

Compound: CCc1cccc(CC)c1NC(=O)c1nn(C)c2c1CCc1cnc(Nc3ccc(N4CCC(N(C)C)CC4)cc3OC)nc1-2 [Free Base]
Water uptake at 60% RH / %: 1

# Water uptake at 60% RH (compound: CCc1cccc(CC)c1NC(=O)c1nn(C)c2c1CCc1cnc(Nc3ccc(N4CCC(N(C)C)CC4)cc3OC)nc1-2.O=P(O)(O)O [Phosphate salt] ) is 1
